Reported Tm values are given for each entry in this list.
B1: Lysozyme C, P61626 (parent)
chain: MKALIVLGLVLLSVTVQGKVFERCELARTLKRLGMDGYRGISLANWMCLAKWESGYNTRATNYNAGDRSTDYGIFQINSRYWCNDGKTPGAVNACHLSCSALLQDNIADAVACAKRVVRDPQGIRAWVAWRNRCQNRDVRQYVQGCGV

Variants of: B1
studyConditions: Homo sapiens; pH 2.7; Thermal; DSC; glycine 0.05 M; reversible: yes; structure 1LZ1; whole UniProt chain shown
Your answer is read as °C, so omit the unit and give the number.

Please review the following examples before continuing.
1) MKALIVLGLVLLSVTVQGKVFERCELARTLKRLGMDGYRGISLANWMCLAKWESGYNTRATNYNAGDRSTDYGIFQINSRYWCNDGKTPGAVNACHLSCSALLQDNVADAVACAKRVVRDPQGIRAWVAWRNRCQNRDVRQYVQGCGV [I107V] = 63.5
2) MKALIVLGLVLLSVTVQGKVFERCELARTLKRLGMDGYRGISLANWMCLAKWESGYNTRATNYNAGDRSTDYGVFQINSRYWCNDGKTPGAVNACHLSCSALLQDNIADAVACAKRVVRDPQGIRAWVAWRNRCQNRDVRQYVQGCGV [I74V] = 61.3
3) MKALIVLGLVLLSVTVQGKVFERCELARTLKRLGMDGYRGVSLANWMCLAKWESGYNTRATNYNAGDRSTDYGIFQINSRYWCNDGKTPGAVNACHLSCSALLQDNIADAVACAKRVVRDPQGIRAWVAWRNRCQNRDVRQYVQGCGV [I41V] = 63.8

Item under review: MKALIVLGLVLLSVTVQGKVFERCELARTLKRLGMDGYRGISLANWMCLAKWESGYNTRATNYNAGDRSTDYGIFQVNSRYWCNDGKTPGAVNACHLSCSALLQDNIADAVACAKRVVRDPQGIRAWVAWRNRCQNRDVRQYVQGCGV [I77V] . Reported Tm?
61.5

Item under review: MKALIVLGLVLLSVTVQGKVFERCELARTLKRLGMDGYRGISLANWMCLAKWESGYNTRATNYNAGDRSTDYGIFQINSRYWCNDGKTPGAVNACHLSCSALLQDNIADAVACAKRVVRDPQGVRAWVAWRNRCQNRDVRQYVQGCGV [I124V] . Reported Tm?
62.7
